Recorded Enzyme Activity Endpoint Assay (purified): scIgG by entry
target: pooled human IgG (human IgG1,2,3 and 4)
Assay Metric: Enzyme Activity Endpoint Assay (purified): scIgG

{"columns": ["Protein", "Measured Value"],
 "data": [
  ["PRT-344 (protein) MTITSVWTKGVTPPTPEDFRENNEDVLHAPYLANQGWYDITKAFDGKDNLLCGAATAGNMLHWWFDQNKEEIERYLKKHPEKQKIIFGNQELFDVKAAIDTKDSQTNSKLFDYFRDKAFPNLSARQLGVMPDLVLDMFINGYYLNLGKTQSTDVNRPYQDKDKRGGIFDAVFTRGDQTTLLTARHDLKNKGLNEISDLIKQELTEGKALALSHTYANVSINHVINLWGADFDAEGELEAIYVTDSDANPSIGMKKYFVGRNAHGKVAISAKKIEGDNIGAQVLGLFTLSTGQDQWQKLS", "218 ng/µL"],
  ["PRT-517 (protein) MITSVWTKGVTPPTDFIKGEDVFHAPYKAGQGWYDITKAFDGGDDLLCGAATAGNMLHWWFDQNKEEIEAYLKKHPEKQKIMFGDQELLDVRKVINTKDSQTNSALFNYFKDKAFPNLSARRLGVMPDLVLDMFINGYYLNVYKTQTTDVNRQEQTKDRRGGIFDAVFGRGDQTKLLTERHDLKNKTLKEISDLIKQELTEGKALGLSHTYANVRINHVINLWGADFDSNGNLEAIYVTDSDSNASIGMKKYFVGVNSAGKVAISAKEIKEDNIGAQVLGLFTLSTGQKIWNKTNLEHHHHHH", "22 ng/µL"],
  ["PRT-351 (protein) MSQTEDSESLQRLRDIEDFQAEKKMQNVVYTKWLDGVDVKDHDFRKIVDGNSAYYATPLLNGRGFYDINKDFNRDSDKCAAAVAANMFHYWLDINRDNVDRFLRQNPEKHGIIELPDGQLKLSDFLNTYESDHGYRDKSKLFDFISENFNGPVWTDKLLDNYINGYAYNYKYGRTIEDPTKNTSKINFFKEVFNEKILTNNHSIRNQNEFSVLLIEALYTGKAIGLSYGPAGLRHSLGHIISVWGADLDADGNVVAIYVTDSDDKKLTIGDERVGLKRYKISTDDENRLRLTAYEETHNTGGQIRGLWTLDTGKYAWADYFDKTEQTGTDQAEQ", "638 ng/µL"],
  ["PRT-325 (protein) MTITSVWTKGVTPPTPEDFRENNEDVLHAPYVANQGWYDITKTFDGKDNLLCGAATAGNMLHWWFDQNKEEIERYLKKHPEKQKIIFGNQELFDVKAAIDTKDSQTNSKLFDYFRDKAFPNLSARQLGVMPDLVLDMFINGYYLNLGKTQSTDVNRPYQDKDKRGGIFDAVFTRGDQTTLLTARHDLKNKGLNEISDLIKQELTEGKALALSHTYANVRINHVINLWGADFDAEGELIAIYVTDSDANPSIGMKKYFVGRNANGKVAISAKKIEGDNIGAQVLGLFTLSTGQDIWQKLS", "0 ng/µL"]
]}
